Where do the numbers come from? From patent US20080234333A1.

- System: Streptococcus agalactiae
- Experiment notes: MIC, microdilution method in 96-well plates
- Type: cell-based
- Condition set: Mueller-Hinton Broth, 37° C., 24 hours of incubation, read-out: MIC Streptococcus agalactiae
Recorded metric: MIC (µg/mL)

a. COc1ccc(C(=O)NC2CCN(C(=O)[C@@H](NC(=O)[C@H](CC3CCCC3)CN(O)C=O)C(C)(C)C)CC2)cc1
b. CC(=O)NC[C@H]1CN(c2ccc(N3CCOCC3)c(F)c2)C(=O)O1 [Linezolid, reference compound]
Task item: Kindly compare a with b and tell me which has the lower MIC figure. In your reply, give the label of the chosen option.
Reply: a
(a: 0.2 µg/mL, b: 1.6 µg/mL)

A. CC(C)(C)[C@H](NC(=O)[C@H](CC1CCCC1)CN(O)C=O)C(=O)N1CCC(NC(=O)c2cc(F)c(F)cc2F)CC1
B. CC(C)(C)[C@H](NC(=O)[C@@H](CC(=O)NO)CC1CCCC1)C(=O)N1CCC(NC(=O)c2ccccc2)CC1
C. CC(C)[C@H](NC(=O)[C@H](CC1CCCC1)CN(O)C=O)C(=O)N1CCC(NC(=O)c2ccc(C#N)cc2)CC1
Task item: Sort (3 compounds) by MIC: min first. Form entry: ranked labels (order as requested).
Reply: A, C, B
(A: 0.2 µg/mL, C: 0.4 µg/mL, B: 1.6 µg/mL)

A. CC(C)(C)[C@H](NC(=O)[C@@H](CC(=O)NO)CC1CCCC1)C(=O)N1CCC(NC(=O)c2ccc(F)cc2)CC1
B. CC(C)(C)[C@H](NC(=O)[C@H](CC1CCCC1)CN(O)C=O)C(=O)N1CCC(NS(=O)(=O)c2ccc(C(F)(F)F)cc2)CC1
Task item: Between A and B , whose measured MIC reads higher? Could you answer with the label of the item you picked?
Reply: B
(B: 0.4 µg/mL, A: 0.2 µg/mL)
